Below: a set of entries, each annotated with reported kon.
test_system: SARS-COV-2 RBD extracellular domain expressed with a C-terminal myc-myc-hexahistidine tag (SARS-COV-2 RBD-mmH) (SARS-CoV-2)
procedure_summary: SPR Biacore, mAb captured on anti-hFc, RBD-mmH analyte, 37 C
Express it in M⁻¹ s⁻¹; write the number only.

Known kon results, listed for orientation:
mAb15164 (antibody, V domains shown) VH: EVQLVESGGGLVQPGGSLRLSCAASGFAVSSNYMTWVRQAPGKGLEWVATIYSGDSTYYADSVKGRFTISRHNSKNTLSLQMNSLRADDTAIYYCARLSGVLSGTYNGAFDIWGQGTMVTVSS VL: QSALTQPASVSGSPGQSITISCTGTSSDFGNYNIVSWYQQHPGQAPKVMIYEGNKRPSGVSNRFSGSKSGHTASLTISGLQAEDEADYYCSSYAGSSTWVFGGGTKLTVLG : 283000
mAb14284 (antibody, V domains shown) VH: QITLKESGPTLVKPTQTLTLTCTFSGFSFSTSGVGVGWIRQPPGKTLEWLALIYWDDDKRYSPSLKSRLTITKDTSKNQVVLTMTNMDPVDTATYFCAHHGIPTIFGYWGQGALVTVSS VL: QSALTQPASVSGSPGQSITISCTGTSSDLGVFNYVSWYQQHPGKAPKLMIYEVTNRPSGVSNRFSGSKSGNTASLTISGLQAEDEADYYCSSYTTSSTVFGGGTKLTVLG : 644000
mAb15157 (antibody, V domains shown) VH: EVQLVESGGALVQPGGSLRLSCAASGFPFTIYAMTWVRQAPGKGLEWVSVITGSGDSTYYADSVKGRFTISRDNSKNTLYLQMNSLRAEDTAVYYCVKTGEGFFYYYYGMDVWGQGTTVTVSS VL: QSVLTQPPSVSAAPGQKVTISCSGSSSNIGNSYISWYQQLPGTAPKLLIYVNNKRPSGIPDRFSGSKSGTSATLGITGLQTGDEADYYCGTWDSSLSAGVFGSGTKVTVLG : 344000
mAb15158 (antibody, V domains shown) VH: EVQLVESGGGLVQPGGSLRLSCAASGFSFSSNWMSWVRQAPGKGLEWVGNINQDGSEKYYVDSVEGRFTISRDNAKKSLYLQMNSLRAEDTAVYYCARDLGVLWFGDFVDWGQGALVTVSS VL: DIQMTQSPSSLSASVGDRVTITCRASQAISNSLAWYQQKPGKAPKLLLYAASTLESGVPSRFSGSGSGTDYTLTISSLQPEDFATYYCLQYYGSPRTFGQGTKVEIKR : 126000

// next item, kon requested
What value of kon has been recorded for this entry: mAb14282 (antibody, V domains shown) VH: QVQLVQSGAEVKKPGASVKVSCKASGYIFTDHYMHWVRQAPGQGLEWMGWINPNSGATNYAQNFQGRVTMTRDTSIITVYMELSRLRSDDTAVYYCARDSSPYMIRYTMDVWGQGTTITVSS VL: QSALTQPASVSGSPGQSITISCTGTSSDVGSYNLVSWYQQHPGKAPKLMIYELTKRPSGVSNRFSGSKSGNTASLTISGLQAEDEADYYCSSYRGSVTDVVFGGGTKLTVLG
1.98e+06
